- Tested on: Penicillium chrysogenum
- Assay Summary: Antifungal activity against Penicillium chrysogenum MTCC 1996 at 100 ug/ml after 48 hrs agar diffusion method
- Format: functional
- Stated Conditions: MTCC 1996, 48 h, read-out: IZ
Measured Property: zone of inhibition at 100 µg/mL (mm)
Write the number in mm without appending the unit.

1. COc1ccc(C(=O)/C=C/C=C(\Cl)c2ccc(Br)cc2)c(OC)c1
16
2. COc1ccc(C(=O)/C=C/C=C(\Cl)c2ccc(Cl)cc2)cc1
12
3. COc1ccc(C(=O)/C=C/C=C(\Cl)c2cccc(Cl)c2)c(OC)c1
10

Would you mind telling me what zone of inhibition at 100 µg/mL value was observed for COc1ccc(C(=O)/C=C/C=C(\Cl)c2ccc(F)cc2)cc1 ?
15

Would you mind telling me what zone of inhibition at 100 µg/mL value was observed for COc1ccc(C(=O)/C=C/C=C(\Cl)c2ccc(Br)cc2)cc1 ?
12

Would you mind telling me what zone of inhibition at 100 µg/mL value was observed for COc1ccc(C(=O)/C=C/C=C(\Cl)c2ccc(Cl)cc2)c(OC)c1 ?
14

Would you mind telling me what zone of inhibition at 100 µg/mL value was observed for COc1ccc(/C(Cl)=C/C=C/C(=O)c2ccc(OC)cc2OC)cc1 ?
12

Would you mind telling me what zone of inhibition at 100 µg/mL value was observed for COc1ccc(C(=O)/C=C/C=C(\Cl)c2ccc(OC)cc2)cc1 ?
15

----------
- Test system: Aspergillus flavus
- Assay Summary: Antifungal activity against Aspergillus flavus MTCC 2501 at 100 ug/ml after 48 hrs agar diffusion method
- Format: functional
- Stated Conditions: MTCC 2501, 48 h, read-out: IZ
Reported zone of inhibition at 100 µg/mL by item:

Some compounds with recorded zone of inhibition at 100 µg/mL:
1) COc1ccc(/C(Cl)=C/C=C/C(=O)c2ccc(OC)cc2OC)cc1
12 mm
2) COc1ccc(C(=O)/C=C/C=C(\Cl)c2cccc(Cl)c2)c(OC)c1
15 mm
3) COc1ccc(C(=O)/C=C/C=C(\Cl)c2cccc(Cl)c2)cc1
8 mm
4) COc1ccc(C(=O)/C=C/C=C(\Cl)c2ccc(OC)cc2)cc1
14 mm

Note: attention shifts to another entry.
Find the measured zone of inhibition at 100 µg/mL: item COc1ccc(C(=O)/C=C/C=C(\Cl)c2ccc(OC)cc2OC)cc1 , target or system Aspergillus flavus.
10 mm

----------
- System: THP-1
- Assay Summary: Cytotoxicity against human THP1 cells assessed as CCK8 release at 10 uM after 24 hrs by ELISA
- Format: cell-based
- Stated Conditions: thp-1, 24 h
Measured Property: Activity (%)
Write the number in % without appending the unit.

1. COc1ccc(C(=O)/C=C/C=C(\Cl)c2ccc(F)cc2)cc1
2

Would you mind telling me what Activity value was observed for COc1ccc(C(=O)/C=C/C=C(\Cl)c2ccc(OC)cc2OC)c(OC)c1 ?
0

Would you mind telling me what Activity value was observed for COc1ccc(C(=O)/C=C/C=C(\Cl)c2ccc(Br)cc2)c(OC)c1 ?
0

Would you mind telling me what Activity value was observed for COc1ccc(C(=O)/C=C/C=C(\Cl)c2ccc(Br)cc2)cc1 ?
30

Would you mind telling me what Activity value was observed for COc1ccc(/C(Cl)=C/C=C/C(=O)c2ccc(OC)cc2OC)cc1 ?
0

Would you mind telling me what Activity value was observed for COc1ccc(C(=O)/C=C/C=C(\Cl)c2ccc(OC)cc2OC)cc1 ?
35

Would you mind telling me what Activity value was observed for COc1ccc(C(=O)/C=C/C=C(\Cl)c2cccc(Cl)c2)c(OC)c1 ?
0

Would you mind telling me what Activity value was observed for COc1ccc(C(=O)/C=C/C=C(\Cl)c2ccc(Cl)cc2)cc1 ?
28

Would you mind telling me what Activity value was observed for COc1ccc(C(=O)/C=C/C=C(\Cl)c2ccc(Cl)cc2)c(OC)c1 ?
0

Would you mind telling me what Activity value was observed for COc1ccc(C(=O)/C=C/C=C(\Cl)c2ccc(OC)cc2)cc1 ?
0

Would you mind telling me what Activity value was observed for COc1ccc(C(=O)/C=C/C=C(\Cl)c2cccc(Cl)c2)cc1 ?
35

Would you mind telling me what Activity value was observed for COc1ccc(C(=O)/C=C/C=C(\Cl)c2ccc(F)cc2)c(OC)c1 ?
0
